Tested on: RARg homodimer (NR concentration 270 nM)
Assay: PBM binding z-score (relative to random genomic background probes); higher = stronger binding; sequences stand for … in GC…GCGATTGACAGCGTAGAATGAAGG
Label label 1 for high-side PBM binding z-score (at or above 1) and label 0 for low-side PBM binding z-score (below it).

>  <ORDERED_RESIDUES>
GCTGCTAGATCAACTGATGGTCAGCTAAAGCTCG

>  <TESTED_TARGET>
RARg homodimer (NR concentration 270 nM)

>  <CAT>
label 0

$$$$

Exam item: Check this sequence for PBM binding z-score at or above 1: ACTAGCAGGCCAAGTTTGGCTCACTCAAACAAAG
Marked response: label 0

Exam item: Check this sequence for PBM binding z-score at or above 1: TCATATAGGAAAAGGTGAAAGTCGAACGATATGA
Marked response: label 1

Exam item: Check this sequence for PBM binding z-score at or above 1: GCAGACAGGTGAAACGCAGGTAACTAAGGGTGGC
Marked response: label 0

Exam item: Check this sequence for PBM binding z-score at or above 1: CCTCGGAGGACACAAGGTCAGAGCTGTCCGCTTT
Marked response: label 1

Exam item: Check this sequence for PBM binding z-score at or above 1: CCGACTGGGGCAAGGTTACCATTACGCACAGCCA
Marked response: label 1

Exam item: Check this sequence for PBM binding z-score at or above 1: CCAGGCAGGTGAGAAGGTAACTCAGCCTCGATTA
Marked response: label 0

Exam item: Check this sequence for PBM binding z-score at or above 1: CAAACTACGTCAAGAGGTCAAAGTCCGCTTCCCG
Marked response: label 1

Exam item: Check this sequence for PBM binding z-score at or above 1: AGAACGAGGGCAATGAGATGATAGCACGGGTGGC
Marked response: label 1

Exam item: Check this sequence for PBM binding z-score at or above 1: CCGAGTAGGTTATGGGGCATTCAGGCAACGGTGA
Marked response: label 0

Exam item: Check this sequence for PBM binding z-score at or above 1: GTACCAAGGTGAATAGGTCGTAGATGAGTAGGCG
Marked response: label 1

----------
Tested on: LXRb:RXRa (NR concentration 270 nM, RXRa partner concentration 90 nM)
Experiment: PBM binding z-score (relative to random genomic background probes); higher = stronger binding; sequences stand for … in GC…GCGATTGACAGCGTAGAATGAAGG
ASSAY_METRIC: PBM binding z-score
The reply should be a number, written without any unit.

>  <ORDERED_RESIDUES>
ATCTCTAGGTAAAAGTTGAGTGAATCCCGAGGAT

>  <PBM binding z-score>
-0.0605

$$$$
>  <ORDERED_RESIDUES>
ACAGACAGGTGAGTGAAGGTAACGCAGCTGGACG

>  <PBM binding z-score>
-0.215

$$$$
>  <ORDERED_RESIDUES>
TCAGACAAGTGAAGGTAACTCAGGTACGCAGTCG

>  <PBM binding z-score>
0.561

$$$$
>  <ORDERED_RESIDUES>
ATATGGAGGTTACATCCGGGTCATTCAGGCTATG

>  <PBM binding z-score>
3.8

$$$$

Exam item: // query PBM binding z-score value for entry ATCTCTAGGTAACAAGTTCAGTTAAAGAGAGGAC
Marked response: 0.642

Exam item: // query PBM binding z-score value for entry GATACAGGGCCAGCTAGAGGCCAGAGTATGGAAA
Marked response: -1.08
